Molecular target: hERG channel (Homo sapiens (Human), UniProt Q12809)
Sequence (Q12809 whole entry): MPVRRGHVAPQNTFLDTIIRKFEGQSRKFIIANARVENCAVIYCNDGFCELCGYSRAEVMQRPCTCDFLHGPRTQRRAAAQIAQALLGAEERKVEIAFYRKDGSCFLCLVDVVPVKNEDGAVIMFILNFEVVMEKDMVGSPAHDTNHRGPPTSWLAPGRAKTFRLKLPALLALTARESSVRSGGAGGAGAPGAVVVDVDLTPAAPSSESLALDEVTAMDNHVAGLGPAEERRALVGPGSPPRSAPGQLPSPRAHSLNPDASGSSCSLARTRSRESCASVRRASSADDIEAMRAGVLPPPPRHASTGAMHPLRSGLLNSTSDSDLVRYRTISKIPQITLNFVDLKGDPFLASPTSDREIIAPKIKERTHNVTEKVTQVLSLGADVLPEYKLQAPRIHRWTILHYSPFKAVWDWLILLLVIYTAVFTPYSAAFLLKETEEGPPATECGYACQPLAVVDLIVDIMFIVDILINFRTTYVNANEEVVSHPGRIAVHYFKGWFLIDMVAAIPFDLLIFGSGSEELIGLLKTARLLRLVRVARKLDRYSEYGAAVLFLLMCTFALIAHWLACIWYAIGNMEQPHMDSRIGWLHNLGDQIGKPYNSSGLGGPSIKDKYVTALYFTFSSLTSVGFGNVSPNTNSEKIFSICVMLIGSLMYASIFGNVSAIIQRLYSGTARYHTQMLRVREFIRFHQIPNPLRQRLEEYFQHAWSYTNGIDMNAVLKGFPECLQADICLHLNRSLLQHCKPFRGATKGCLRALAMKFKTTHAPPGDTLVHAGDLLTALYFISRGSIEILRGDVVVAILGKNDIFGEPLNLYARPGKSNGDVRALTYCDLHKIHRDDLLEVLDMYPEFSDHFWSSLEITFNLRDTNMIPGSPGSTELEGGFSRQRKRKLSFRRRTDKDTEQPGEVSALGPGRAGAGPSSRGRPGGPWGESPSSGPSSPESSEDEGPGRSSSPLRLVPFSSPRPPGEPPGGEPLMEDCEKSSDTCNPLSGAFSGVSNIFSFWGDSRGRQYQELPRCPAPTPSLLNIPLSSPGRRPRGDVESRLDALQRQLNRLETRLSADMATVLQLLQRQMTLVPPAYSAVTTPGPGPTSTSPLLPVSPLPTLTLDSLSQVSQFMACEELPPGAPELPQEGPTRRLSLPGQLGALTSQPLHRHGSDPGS
Assay: Test 6-1: inhibitory activity for hERG channel (auto patch clamp, Qpatch)
Format: cell-based
Conditions: ratio of hERG IC50 to 5-HT1A Ki
ASSAY METRIC: hERG inhibition IC50 (nmol/L)/5-HT1A Ki (nmol/L)
Answers are plain numbers.

Give hERG inhibition IC50 (nmol/L)/5-HT1A Ki (nmol/L) for each of the items listed below.
1. Cn1ncc2c1CCCN(CCN1CCC(c3noc4ccccc34)CC1)C2=O [Example 43]
2. CCc1ccc2c(n1)C(=O)N(CCN1CCC(c3noc4ccccc34)CC1)CC2 [Example 185]
3. Cn1ncc2c1C(=O)N(CCN1CCC(c3noc4ccccc34)CC1)CC2 [Example 96]
4. O=C1c2cnc(OC3COC3)cc2CCN1CCN1CCN(c2nsc3ccccc23)CC1 [Example 111]

[1630, 214, 97, 2052]

// input: 3 compounds below; output: hERG inhibition IC50 (nmol/L)/5-HT1A Ki (nmol/L) for each
1. Cc1nc2c(o1)CCCN(CCN1CCC(c3noc4ccccc34)CC1)C2=O [Example 157]
2. Cn1ccc2c1CCCN(CCN1CCC(c3noc4ccccc34)C1)C2=O (stereo not shown) [Example 175]
3. O=C1c2ncoc2CCN1CCN1CCC(c2noc3ccccc23)CC1 [Example 190]

[754, 197, 32]

----------
Target: human 5-HT1A receptor (Homo sapiens (Human), UniProt P08908)
Sequence (P08908 whole entry): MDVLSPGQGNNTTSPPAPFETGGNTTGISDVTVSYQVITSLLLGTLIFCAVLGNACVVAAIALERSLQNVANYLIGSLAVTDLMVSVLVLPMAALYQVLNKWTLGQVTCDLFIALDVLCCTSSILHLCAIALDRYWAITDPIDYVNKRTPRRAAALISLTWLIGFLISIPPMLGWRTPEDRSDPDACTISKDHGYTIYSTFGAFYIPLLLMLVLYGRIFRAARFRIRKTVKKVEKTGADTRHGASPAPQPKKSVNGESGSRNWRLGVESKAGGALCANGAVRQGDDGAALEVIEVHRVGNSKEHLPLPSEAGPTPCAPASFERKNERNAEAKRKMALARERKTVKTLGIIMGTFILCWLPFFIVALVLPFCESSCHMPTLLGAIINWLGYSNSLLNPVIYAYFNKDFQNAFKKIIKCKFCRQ
Experiment: Test 2: agonist activity for human 5-HT1A receptor ([35S]GTPγS binding)
Settings: [35S]GTPγS binding; concentration at which half the activity of Emax was obtained
pEC50: −log10 of the molar value.
Each entry gets 0 if its pEC50 stays under 8, and 1 if its pEC50 is 8 or above.

Solved entries (count: 5):
Could you please find out whether CC(C)n1ncc2c1CCN(CCN1CCC(c3noc4ccccc34)CC1)C2=O has pEC50 that meets 8 or exceeds it? 0

Please tell me: is the molecule Cc1cncc2c1CCN(CCN1CCN(c3noc4ccccc34)CC1)C2=O at or over 8 in terms of pEC50? 0

Is reported pEC50 greater than or equal to 8 here: CCn1ncc2c1CCN(CCN1CCN(c3nsc4ccccc34)CC1)C2=O 0

Reported pEC50 at or above 8? O=C1c2cn(C3CC3)nc2CCN1CCN1CCC(c2noc3ccccc23)CC1 1

Kindly determine if pEC50 recorded for O=C1c2cnn(C3CC3)c2CCN1CCN1CCC(c2noc3ccccc23)CC1 is above or exactly 8. 0

***
Entry O=C1c2oc(C3CC3)nc2CCN1CCN1CCN(c2nsc3ccccc23)CC1 : is its pEC50 no less than 8? 1

Given CC(C)c1nc2c(o1)C(=O)N(CCN1CCN(c3nsc4ccccc34)CC1)CC2 , state whether its pEC50 is at least 8. 0

Is reported pEC50 greater than or equal to 8 here: Cc1nn(C)c2c1C(=O)N(CCN1CCN(c3noc4ccccc34)CC1)CCC2 0

Evaluate Cc1nc2c(o1)C(=O)N(CCN1CCC(c3noc4ccccc34)CC1)CCC2 : pEC50 at minimum 8? 0

Kindly determine if pEC50 recorded for Cc1c2c(nn1C)CCN(CCN1CCC(c3noc4ccccc34)CC1)C2=O is above or exactly 8. 0

----------
Target: human 5-HT1A receptor (Homo sapiens (Human), UniProt P08908)
Response field label takes TRUE when Ki is strictly below 10 nM and FALSE in all other cases.

Examples from the recorded data:
Lab note: Ki threshold 10 nM. Does this molecule come in strictly under it? Cn1cc2c(n1)CCCN(CCN1CCN(c3nsc4ccccc34)CC1)C2=O TRUE

Lab log: compare recorded Ki with 10 nM; is it strictly lower for Cc1noc2c1C(=O)N(CCN1CCN(c3noc4ccccc34)CC1)CC2 ? FALSE

Given Cc1ncc2c(n1)CCN(CCN1CCN(c3noc4ccccc34)CC1)C2=O , is recorded Ki strictly lower than 10 nM? FALSE

Does the reported Ki of the following molecule sit strictly below 10 nM? O=C1c2ncccc2CCN1CCN1CCN(c2nsc3cc(F)ccc23)CC1 TRUE

Consider the molecule O=C1c2cncnc2CCN1CCN1CCN(c2nsc3ccccc23)CC1 . Is its Ki strictly less than 10 nM? TRUE

Strictly below 10 nM: is that where Ki of Cn1nc2c(c1Br)C(=O)N(CCN1CCN(c3nsc4ccccc34)CC1)CC2 sits? TRUE

Determine whether this molecule shows Ki lower than 10 nM (ties excluded): CCn1ncc2c1CCN(CCN1CCN(c3nsc4ccccc34)CC1)C2=O FALSE

For COc1cc2c(cn1)CCN(CCN1CCN(c3nsc4ccccc34)CC1)C2=O , is the recorded Ki below the cut-off of 10 nM? TRUE

Consider O=c1c2cccnc2ccn1CCN1CCN(c2nsc3ccccc23)CC1 . Does its Ki lie strictly below 10 nM? FALSE

Answer whether the molecule O=C1c2c(Br)n[nH]c2CCN1CCN1CCC(c2noc3ccccc23)CC1 has Ki strictly less than 10 nM FALSE

Next:
Given the entry Cc1nc2c(o1)CCN(CCN1CCN(c3nsc4ccccc34)CC1)C2=O , would its reported Ki be below 10 nM? TRUE

Strictly below 10 nM: is that where Ki of O=C1c2ncccc2CCN1CCN1CCC(c2noc3ccc(F)cc23)CC1 sits? TRUE

Problem: For the molecule Cc1nc(C)c2c(=O)n(CCN3CCC(c4noc5ccccc45)CC3)ccc2n1 , is Ki under 10 nM? FALSE

Hi there! Is Ki for Cc1nn(C)c2c1C(=O)N(CCN1CCN(c3noc4ccccc34)CC1)CCC2 below 10 nM, do you know? TRUE

Hi there! Is Ki for COc1ncc2c(n1)CCN(CCN1CCN(c3nsc4ccccc34)CC1)C2=O below 10 nM, do you know? TRUE
